Provide the reported IC50 of each item.
STUDY TARGET: HERG (Homo sapiens (Human))
Sequence (Q12809 whole entry): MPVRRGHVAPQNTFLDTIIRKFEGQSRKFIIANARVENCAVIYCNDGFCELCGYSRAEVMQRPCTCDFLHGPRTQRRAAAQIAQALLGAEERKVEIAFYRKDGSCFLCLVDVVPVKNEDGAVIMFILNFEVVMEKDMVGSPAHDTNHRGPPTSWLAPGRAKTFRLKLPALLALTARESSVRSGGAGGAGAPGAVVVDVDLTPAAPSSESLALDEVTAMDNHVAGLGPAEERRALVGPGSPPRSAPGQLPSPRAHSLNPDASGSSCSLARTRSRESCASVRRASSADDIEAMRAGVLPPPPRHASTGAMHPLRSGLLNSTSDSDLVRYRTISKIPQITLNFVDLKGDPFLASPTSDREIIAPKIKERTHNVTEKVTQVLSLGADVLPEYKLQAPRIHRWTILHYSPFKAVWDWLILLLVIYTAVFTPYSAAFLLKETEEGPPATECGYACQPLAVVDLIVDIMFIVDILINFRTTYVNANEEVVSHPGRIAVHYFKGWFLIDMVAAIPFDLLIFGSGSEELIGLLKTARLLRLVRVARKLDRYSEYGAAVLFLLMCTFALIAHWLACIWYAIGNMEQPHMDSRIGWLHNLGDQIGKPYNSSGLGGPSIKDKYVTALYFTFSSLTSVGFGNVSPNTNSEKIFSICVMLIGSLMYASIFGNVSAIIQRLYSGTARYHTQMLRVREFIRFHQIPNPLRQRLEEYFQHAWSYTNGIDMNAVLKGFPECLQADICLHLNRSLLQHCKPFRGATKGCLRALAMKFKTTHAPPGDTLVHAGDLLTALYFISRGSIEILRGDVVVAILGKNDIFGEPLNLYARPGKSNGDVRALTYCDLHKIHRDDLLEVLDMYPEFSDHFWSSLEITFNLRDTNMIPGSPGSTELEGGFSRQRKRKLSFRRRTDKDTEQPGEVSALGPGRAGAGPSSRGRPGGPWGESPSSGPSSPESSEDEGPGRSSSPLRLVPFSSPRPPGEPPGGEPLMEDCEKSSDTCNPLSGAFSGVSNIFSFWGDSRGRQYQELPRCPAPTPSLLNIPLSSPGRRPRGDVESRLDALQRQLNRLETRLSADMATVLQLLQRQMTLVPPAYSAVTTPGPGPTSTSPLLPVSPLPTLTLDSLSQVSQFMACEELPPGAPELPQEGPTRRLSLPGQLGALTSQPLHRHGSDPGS
One number for each entry, in µM.

Example compounds with recorded IC50:
Cc1c(CN(C)C(=O)/C=C/c2cnc3c(c2)CC[C@H](N)C(=O)N3)oc2ccccc12 [(S)-11] :: 21.8
Cc1c(CN(C)C(=O)/C=C/c2cnc3c(c2)CCC(=O)N3)oc2ccccc12 [Debio-1452, reference compound] :: 5.5

Then there is this compound:
Exam item: Which IC50 is reported with HERG (Homo sapiens (Human)) for this entry: Cc1c(CN(C)C(=O)/C=C/c2cnc3c(c2)CC(N)C(=O)N3)oc2ccccc12 (racemic) ?
Marked response: 5.7

====

STUDY TARGET: CYP 2D6 (Homo sapiens (Human))
Sequence (P10635 whole entry): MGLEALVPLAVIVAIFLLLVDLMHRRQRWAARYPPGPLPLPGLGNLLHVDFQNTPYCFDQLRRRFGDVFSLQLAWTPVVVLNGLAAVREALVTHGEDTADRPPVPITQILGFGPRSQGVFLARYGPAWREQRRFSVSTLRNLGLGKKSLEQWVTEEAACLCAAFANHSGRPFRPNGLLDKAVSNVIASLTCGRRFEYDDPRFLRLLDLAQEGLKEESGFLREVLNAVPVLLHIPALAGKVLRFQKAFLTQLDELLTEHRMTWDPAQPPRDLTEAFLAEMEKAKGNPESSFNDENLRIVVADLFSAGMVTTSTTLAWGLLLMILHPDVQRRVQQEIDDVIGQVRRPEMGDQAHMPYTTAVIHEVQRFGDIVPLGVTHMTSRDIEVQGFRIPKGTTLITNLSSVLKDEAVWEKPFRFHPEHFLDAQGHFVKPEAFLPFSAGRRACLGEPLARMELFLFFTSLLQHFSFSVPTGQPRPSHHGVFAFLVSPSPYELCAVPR
RESULT TYPE: pIC50
Give bare numbers, as −log10 of the molar value.

Exam item: I would be grateful if you could share the reported pIC50 for Cc1c(CN(C)C(=O)/C=C/c2cnc3c(c2)CC[C@H](N)C(=O)N3)oc2ccccc12 [(S)-11] .
Marked response: 4.19

====

MEASUREMENT DESCRIPTION: Plasma protein binding
MEASUREMENT CONTEXT: human, plasma
I'd appreciate it if you could supply fraction unbound values for the items below.
One number for each entry.

Cc1c(CN(C)C(=O)/C=C/c2cnc3c(c2)CC[C@H](N)C(=O)N3)oc2ccccc12 [(S)-11] :: 0.06

Exam item: Need fraction unbound of Cc1c(CN(C)C(=O)/C=C/c2cnc3c(c2)CC(N)C(=O)N3)oc2ccccc12 (racemic) [Debio-1452-NH3] , thanks.
Marked response: 0.107

====

MEASUREMENT DESCRIPTION: in vivo
MEASUREMENT CONTEXT: female, C57BL/6, mouse, in vivo
RESULT TYPE: MTD at 2 weeks
Include the unit right after the number.

Exam item: Consider the compound shown here: Cc1c(CN(C)C(=O)/C=C/c2cnc3c(c2)CC(N)C(=O)N3)oc2ccccc12.Cl (stereo not shown) [Debio-1452-NH3, reference compound] What is its recorded MTD at 2 weeks?
Marked response: 50 mg/kg

====

STUDY TARGET: CYP 2C9 (Homo sapiens (Human), UniProt P11712)
Sequence (P11712 whole entry): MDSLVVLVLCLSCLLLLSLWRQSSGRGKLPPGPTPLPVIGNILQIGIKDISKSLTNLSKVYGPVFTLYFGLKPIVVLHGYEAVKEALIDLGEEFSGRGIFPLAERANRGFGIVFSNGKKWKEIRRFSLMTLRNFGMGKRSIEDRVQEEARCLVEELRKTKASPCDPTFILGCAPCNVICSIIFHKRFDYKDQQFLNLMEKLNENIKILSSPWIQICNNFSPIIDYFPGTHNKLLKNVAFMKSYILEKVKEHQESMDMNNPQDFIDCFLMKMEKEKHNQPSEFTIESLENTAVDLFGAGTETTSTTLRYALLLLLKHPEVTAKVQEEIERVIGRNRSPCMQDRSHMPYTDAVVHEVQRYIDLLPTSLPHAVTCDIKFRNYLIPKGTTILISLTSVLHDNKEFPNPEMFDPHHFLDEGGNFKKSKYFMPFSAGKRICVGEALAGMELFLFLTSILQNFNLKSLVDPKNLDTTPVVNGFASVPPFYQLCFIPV
RESULT TYPE: pIC50
Answers are plain numbers, as −log10 of the molar value.

Exam item: Please report the recorded pIC50 for Cc1c(CN(C)C(=O)/C=C/c2cnc3c(c2)CC[C@H](N)C(=O)N3)oc2ccccc12 [(S)-11] .
Marked response: 4.57

====

For each of the molecules below, state its MIC K. pneumoniae AR 0113.
Tested on: K. pneumoniae AR 0113
MEASUREMENT DESCRIPTION: microbe, parasite or virus in culture
Assay type: cell-based
MEASUREMENT CONTEXT: clinical isolate
Answers are plain numbers, in µg/mL.

Worked set:
Cc1c(CN(C)C(=O)/C=C/c2cnc3c(c2)CC2(CNC2)C(=O)N3)oc2ccccc12 [drawing 106] :: 16
Cc1c(CN(C)C(=O)/C=C/c2cnc3c(c2)CC2(CNC2)C(=O)N3)oc2ccccc12 [Compound 5] :: 16
Cc1c(CN(C)C(=O)/C=C/c2cnc3c(c2)CCC(CN)C(=O)N3)oc2ccccc12 (racemic) [(±)-12] :: 32
Cc1c(CN(C)C(=O)/C=C/c2cnc3c(c2)CCC(N)C(=O)N3)oc2ccccc12 (racemic) [(±)-11] :: 8
Cc1c(CN(C)C(=O)/C=C/c2cnc3c(c2)CCC(CN)C(=O)N3)oc2ccccc12 (stereo not shown) :: 32

Count: 4. Required value per item: MIC K. pneumoniae AR 0113.
1. Cc1c(CN(C)C(=O)/C=C/c2ccc3c(c2)CCC(N)C(=O)N3)oc2ccccc12 (single isomer, unassigned) [Isomer 2]
2. Cc1c(CN(C)C(=O)/C=C/c2cnc3c(c2)CC(CCNC(=O)OC(C)(C)C)C(=O)N3)oc2ccccc12 (stereo not shown)
3. Cc1c(CN(C)C(=O)C=Cc2cnc3c(c2)CC2(CC(N)C2)C(=O)N3)oc2ccccc12 (mixture of isomers) [(±)-6]
4. Cc1c(CN(C)C(=O)/C=C/c2cnc3c(c2)CC2(CC(CN)C2)C(=O)N3)oc2ccccc12 (stereo not shown)

Marked response:
[8, 32, 16, 32]

Source: patent US20240190872A1
